The measured values listed here are drawn from the NIST ThermoML archive (doi:10.1021/je050170x).

Details: 308.15 K; 101.33 kPa; Liquid; Capillary tube (Ostwald / Ubbelohde) method
parameter_measured: viscosity (mPa·s)

>>> result("CCOC(=O)c1ccccc1O [ethyl 2-hydroxybenzoate]")
2.253
>>> result("CCOC(=O)c1ccccc1 [ethyl benzoate]")
1.623
>>> result("CCC(=O)OCc1ccccc1 [benzyl propanoate]")
1.787
>>> result("CCCCCC(=O)OCC [ethyl hexanoate]")
0.814
>>> result("CCOC(=O)CC(C)=O [ethyl 3-oxobutanoate]")
1.344
>>> result("CCCCCCCC(=O)OCC [ethyl octanoate]")
1.193
>>> result("CC(=O)OCc1ccccc1 [benzyl ethanoate]")
1.703
>>> result("COC(=O)c1ccccc1 [methyl benzoate]")
1.531
>>> result("CC(=O)OCCC(C)C [3-methylbutyl ethanoate]")
0.704
>>> result("CCCC(=O)OCCC(C)C [3-methylbutyl butanoate]")
0.952
>>> result("CCOC(=O)CC(C)C [ethyl 3-methylbutanoate]")
0.642
>>> result("CCOC(=O)Cc1ccccc1 [ethyl phenylacetate]")
1.948
